The reader will find reported ELISA signal values listed item by item below.
# study_system: T1, His-tagged P3028 (human, not fully specified)
# T1 construct: the tag is put first after 'PGE73=His-tag-P3028'; also called PGE73; not shown: His-tag
# T1 peptide: {His‑tag}-VFDEFKPLVEEPQNLIK
# assay_overview: chip ELISA
No end group written: not given here.
// print number alone

Task: Please give the documented ELISA signal of QKLDTFFVKLSLFTER [P28R K1Q]
Result: 455

Task: Please give the documented ELISA signal of KKFDTFFVKLSLFTER [P28R L3F]
Result: 393

Task: Please give the documented ELISA signal of KKLDTFFVKLMLFTER [P28R S11M]
Result: 744

Task: Please give the documented ELISA signal of KKLDTFFVKLSYFTER [P28R L12Y]
Result: 320

Task: Please give the documented ELISA signal of KKLDTFFTKLSLFTER [P28R V8T]
Result: 298

Task: Please give the documented ELISA signal of KKLDNFFVKLSLFTER [P28R T5N]
Result: 436

Task: Please give the documented ELISA signal of KKLDTFFVKLSLFTES [P28R R16S]
Result: 184
